B1: Chromodomain-helicase-DNA-binding protein 7, residues 2564 to 2605; numbered along this chain, Q9P2D1 (parent)
chain: DPDTRIPVINLEDGTRLVGEDAPKNKDLVEWLKLHPTYTVDM

Variants of: B1
Assay: abundance fitness (aPCA) (normalised: wild type 0, dead -1); higher = more abundant; growth selection in yeast, the domain comes from the species named
Conditions: Homo sapiens
quantity-name: abundance fitness
// no unit string in output, number only

Guide cases for abundance fitness, answers given:
>  <seq>
DPDTRIPVINLEDGTRLVGEDAPKNKDLVEWLKLHPTYTVKM

>  <abundance fitness>
-1.14

$$$$
>  <seq>
DPDTRIPVINLEDGTRLVGEDAPKNKDLVEWLKLHPFYTVDM

>  <abundance fitness>
-0.727

$$$$
>  <seq>
DPDTRIPVINLEDGTRLVGEDAPKNKDLVEWLKLHPTYTVVM

>  <abundance fitness>
-0.793

$$$$
>  <seq>
DPDTRIPVINLEDGTRLVGEDAPKNIDLVEWLKLHPTYTVDM

>  <abundance fitness>
-0.255

$$$$
>  <seq>
DPDTRIPVINLEDGTRLVGEDAPKNKDLVEWLKLHPTYTVDH

>  <abundance fitness>
-0.04

$$$$
>  <seq>
DPDPRIPVINLEDGTRLVGEDAPKNKDLVEWLKLHPTYTVDM

>  <abundance fitness>
-0.286

$$$$

Could you now look at the following variant, please?
Given the variant `DPDTRIPVINLEDGTRLVGEKAPKNKDLVEWLKLHPTYTVDM` , what is its reported abundance fitness?
-0.134

Hello, the source for this data is the Human Domainome abundance scans (Beltran et al. 2025), in case you need it.
